Provide the reported AC50 of each item.
target: UniProt:P55789; assay: ALR-catalysed DTT oxidation blockers – biochemical, H2O2 detection, luminescence, cherry-pick, dose response (AID 493248)
Sequence (P55789 whole entry): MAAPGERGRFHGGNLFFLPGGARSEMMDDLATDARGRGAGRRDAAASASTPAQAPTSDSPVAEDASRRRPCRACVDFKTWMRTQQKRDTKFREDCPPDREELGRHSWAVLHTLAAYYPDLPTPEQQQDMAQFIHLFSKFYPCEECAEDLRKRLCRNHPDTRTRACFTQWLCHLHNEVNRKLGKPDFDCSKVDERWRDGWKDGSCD
Activity calls are given as the source filed them.

// returns reported AC50 for input `Cc1[nH]c2ccccc2c1/C=N/NC(=O)Cc1cccs1`
4.46 µM (active)

Record: `CCCCNC(=O)c1ccc(CS(=O)(=O)c2ccc(C)cc2)o1`
15.6 µM (active)

Record: `Sc1nc2ccc(Cl)cc2s1`
2.39 µM (active)

Record: `COc1cccc(CNn2cnnc2)c1O`
2.23 µM (active)

----------
biological target: Cytochrome P450 3A4 (Homo sapiens, UniProt P08684);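 also: CYP3A4 tested as one member of a cytochrome P450 panel screen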
Sequence (P08684 whole entry): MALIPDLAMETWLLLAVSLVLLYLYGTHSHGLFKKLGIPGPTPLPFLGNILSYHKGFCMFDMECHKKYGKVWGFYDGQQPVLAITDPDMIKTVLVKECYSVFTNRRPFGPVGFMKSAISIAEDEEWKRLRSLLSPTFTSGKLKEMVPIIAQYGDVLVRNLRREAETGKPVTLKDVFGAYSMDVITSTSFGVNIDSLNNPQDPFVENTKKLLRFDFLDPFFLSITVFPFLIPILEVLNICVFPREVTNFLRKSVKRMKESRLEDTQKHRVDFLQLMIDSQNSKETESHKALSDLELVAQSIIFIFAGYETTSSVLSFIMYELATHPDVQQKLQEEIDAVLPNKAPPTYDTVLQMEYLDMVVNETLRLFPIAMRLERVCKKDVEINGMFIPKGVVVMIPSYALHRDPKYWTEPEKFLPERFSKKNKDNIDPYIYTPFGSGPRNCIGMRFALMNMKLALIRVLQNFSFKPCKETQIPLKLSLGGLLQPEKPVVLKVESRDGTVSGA
Provide the reported AC50 of each item.

// returns reported AC50 for input CC(NC(=O)CN1CCCC1)C12CC3CC(CC(C3)C1)C2 (stereo not given)
14.1 µM (inconclusive)

Record: `COc1ccc2c3c1O[C@@H]1C(=O)CC[C@@]4(O)[C@@H](C2)N(CC2CC2)CC[C@]314`
25.1 µM (inconclusive)

Record: `Cc1ccc(C)c(Cn2cnc3c(cnn3C(C)(C)C)c2=O)c1`
0.794 µM (inconclusive)

Record: COCCOC(=O)C1=C(C)NC(=O)N(C(C)=O)C1c1ccc(Cl)cc1 (stereo not given)
17.8 µM (inconclusive)

Record: `COc1ccccc1CNc1ncncc1-c1ccoc1`
0.794 µM (inconclusive)

Record: `C[C@@]12CC[C@H]3[C@@H](CC[C@@H]4C[C@H]5S[C@H]5C[C@]43C)[C@H]1CC[C@H]2O`
6.31 µM (inconclusive)

Record: `CCCCOc1cc(C[C@@H]2CNC(=O)N2)ccc1OC`
15.8 µM (inconclusive)

Record: `C1=C(CN2CCOCC2)COc2c1cccc2OC[C@@H]1CNCCO1`
39.8 µM (inconclusive)

Record: `O=C(CSc1nc2ccc([N+](=O)[O-])cc2s1)c1ccc2ccccc2c1`
3.98 µM (inconclusive)

Record: `Oc1nc2cc(Cl)ccc2c(O)c1-c1ccc(Oc2ccccc2)cc1`
10 µM (inconclusive)

----------
Active and inactive are the calls of the source.
Measured AC50 (Cytochrome P450 1A2 (Homo sapiens, UniProt P05177))

// returns reported AC50 for input `COC(=O)[C@@]1(Cc2ccc(OC)cc2)[C@H]2c3cc(C(=O)N4CCCC4)n(Cc4c(CO)ncc(C)c4O)c3C[C@H]2CN1C(=O)c1ccccc1`
25.1 µM (inconclusive)

Record: CCC(=C(CC)c1ccc(O)cc1)c1ccc(O)cc1 [DIETHYLSTILBESTROL]
15.8 µM (active)

Record: `O=C(Nc1ccc(Cl)cc1C(F)(F)F)c1ccc(Cl)cc1`
4.47 µM (inconclusive)

Record: `Brc1cc2c(cc1/C=N/Nc1nc(N3CCCC3)nc(N3CCOCC3)n1)OCO2`
15.8 µM (inconclusive)
